Documented cell count across a set of compounds
- TEST_SUMMARY: inhibitors of TNFa-induced NFkB p65 translocation, primary screen, imaging, HUVEC, MLSMR starter and 10KST1 sets (AID 438);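 also: compound added about 3h40 before a 20 min TNFalpha stimulation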
- ASSAY_CONTEXT: HUVEC TNFa-induced p65 nuclear translocation; measured here: nuclei count (cytotoxicity indicator), at 2.08 µM
MEASURED_PROPERTY: cell count

[[record]]
substance_smiles = "CCCNC(=O)c1cc(-c2ccco2)on1"
readout_number = 389

[[record]]
substance_smiles = "CN1CCN(c2ccc(Cl)cc2NC(=O)c2cccc(S(=O)(=O)N(C)C)c2)CC1"
readout_number = 378

[[record]]
substance_smiles = "Cc1ccc(C(=O)OCC(=O)c2ccc(Cl)s2)s1"
readout_number = 654

[[record]]
substance_smiles = "Cc1ccc(Cn2ncc3c(NCCCN4CCOCC4)ncnc32)cc1"
readout_number = 642

[[record]]
substance_smiles = "CC(=O)Nc1ccc(Cl)cc1C(=O)O"
readout_number = 236

[[record]]
substance_smiles = "COC(=O)c1[nH]c2ccc(C)cc2c1NC(=O)CN1CCN(C(=O)c2ccccc2)CC1"
readout_number = 330

[[record]]
substance_smiles = "O=C(c1ccc(Br)o1)N(Cc1ccccc1)c1ccccn1"
readout_number = 386

[[record]]
substance_smiles = "COC(=O)c1cc(=O)n(Cc2ccc3c(c2)OCO3)c(=Nc2ccccc2)s1"
readout_number = 575


* * *

Listed below: inhibition values for each entry.
- TEST_SUMMARY: blockers of RIG-like receptor reporter activation – cell-based, Sendai virus stimulus, luciferase, 10K MLSCN set, TLR/RLR signaling modifier project, primary screen (AID 602276);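 also: firefly luciferase from ISG56 promoter only with Renilla not read in this screen; 0% = Sendai virus plus DMSO and 100% = medium plus DMSO without virus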
- ASSAY_CONTEXT: HEK293 RL24 IRF3 luciferase reporter, at 10 µM, stronger effect = higher value
MEASURED_PROPERTY: inhibition (%)

[[record]]
compound = "CC(C)COC(=O)C(C#N)c1nc2ccccc2nc1N1CCN(Cc2ccccc2)CC1 (stereo not drawn)"
measured_property = "inhibition"
readout_number = 14.6

[[record]]
compound = "Cc1cccc(OCC(=O)Nc2ccc(N3CCCC3)cc2)c1C"
measured_property = "inhibition"
readout_number = 7.46

[[record]]
compound = "Cc1cccn2c(=O)c3cc(C#N)c(=NC(=O)c4cccnc4)n(CC4CCCO4)c3nc12 (stereo not drawn)"
measured_property = "inhibition"
readout_number = -14.2

[[record]]
compound = "O=C(c1ccc(Cl)cc1)N1CCCOC1"
measured_property = "inhibition"
readout_number = 10.5

[[record]]
compound = "C=CCn1c(=O)c2ccccc2n2c(SC(C)C(=O)Nc3nc(-c4ccccc4)cs3)nnc12 (stereo not drawn)"
measured_property = "inhibition"
readout_number = 10.9

[[record]]
compound = "OCc1nc2ccccc2n1CCCOc1ccccc1"
measured_property = "inhibition"
readout_number = -34.5

[[record]]
compound = "O=C(CCCn1c(=O)[nH]c2ccsc2c1=O)N1CCN(c2ccccn2)CC1"
measured_property = "inhibition"
readout_number = 8.33

[[record]]
compound = "O=C1COc2ccc(C(=O)COC(=O)CCc3ccc(S(=O)(=O)N4CCOCC4)cc3)cc2N1"
measured_property = "inhibition"
readout_number = 4.84

[[record]]
compound = "COc1ccc(/C=N/n2c(=O)[nH]c3c([nH]c4ccc(C)cc43)c2=O)cc1CN1CCOCC1"
measured_property = "inhibition"
readout_number = -0.771

[[record]]
compound = "CCOc1ccccc1C1CC(=O)NC(SCC)=C1C#N (stereo not drawn)"
measured_property = "inhibition"
readout_number = 9.15

[[record]]
compound = "O=C(CSc1nc2ccccc2[nH]1)c1ccc2c(c1)OCO2"
measured_property = "inhibition"
readout_number = 18.8

[[record]]
compound = "CCC(=O)N1CCN(CCN=CC2=C(O)CC(C)(C)CC2=O)CC1"
measured_property = "inhibition"
readout_number = 8.29

[[record]]
compound = "COc1ccc(N2C(=O)C3C4C=CC(C4)C3C2=O)nn1 (stereo not drawn)"
measured_property = "inhibition"
readout_number = 11.4

[[record]]
compound = "Cc1cc(NC(=O)CSc2nnc(COc3cccc(C)c3C)n2Cc2ccco2)no1"
measured_property = "inhibition"
readout_number = 4.7

[[record]]
compound = "CC(=O)N1C(=O)N(C)C2C1N(C(C)=O)C(=O)N2C (stereo not drawn)"
measured_property = "inhibition"
readout_number = 11.1

[[record]]
compound = "CCOC(=O)c1c(COC(=O)c2ccco2)nc2ccccc2[n+]1[O-]"
measured_property = "inhibition"
readout_number = 17.9

[[record]]
compound = "CCOc1ccc2c(c1)n(CO)c(=S)n2CO"
measured_property = "inhibition"
readout_number = 16.9

[[record]]
compound = "CC1=Nn2c(nnc2-c2cc(-c3ccccc3)n[nH]2)SC1"
measured_property = "inhibition"
readout_number = 18.2

[[record]]
compound = "Cn1c2c(c(=O)n(C)c1=O)CN(CCCN1CCOCC1)CN2"
measured_property = "inhibition"
readout_number = 8.17

[[record]]
compound = "COc1ccc(-n2nc3cc(C)c(N)c(Br)c3n2)cc1"
measured_property = "inhibition"
readout_number = -10.7

[[record]]
compound = "CC(Sc1nnnn1-c1ccccc1)C(=O)Nc1ccc(Cl)cn1 (stereo not drawn)"
measured_property = "inhibition"
readout_number = 16

[[record]]
compound = "CNc1ccc(C(O)(C(F)(F)F)C(F)(F)F)cc1C(O)(C(F)(F)F)C(F)(F)F"
measured_property = "inhibition"
readout_number = 12.6

[[record]]
compound = "CCN1CCN(C(=O)c2cn(CC)c3ccc(S(=O)(=O)N(C)C)cc3c2=O)CC1"
measured_property = "inhibition"
readout_number = 7.55

[[record]]
compound = "COc1cccc(C=Nc2ccc3c(c2)OCCO3)c1O"
measured_property = "inhibition"
readout_number = 12.6

[[record]]
compound = "CN(Cc1cnn(C)c1)C(=O)c1cc2ccccc2oc1=O"
measured_property = "inhibition"
readout_number = 11.1

[[record]]
compound = "O=C(O)CCCC(=O)NCCc1ccncc1"
measured_property = "inhibition"
readout_number = 3.6

[[record]]
compound = "O=C(O)c1cccc(NC(=O)C2C3C=CC(C3)C2C(=O)OCC(F)(F)C(F)F)c1 (stereo not drawn)"
measured_property = "inhibition"
readout_number = 10.2

[[record]]
compound = "CC(C(=O)Oc1ccc2c(c1)OCO2)N1C(=O)c2ccccc2C1=O (stereo not drawn)"
measured_property = "inhibition"
readout_number = 23.3

[[record]]
compound = "c1cc(C(c2nnnn2C2CCCC2)N2CCOCC2)ccn1 (stereo not drawn)"
measured_property = "inhibition"
readout_number = 18.3

[[record]]
compound = "CS(=O)(=O)Nc1ccccc1C(=O)O"
measured_property = "inhibition"
readout_number = 11.5

[[record]]
compound = "CCN(C(=O)c1ccnc(C(C)(C)C)c1)c1ccccc1"
measured_property = "inhibition"
readout_number = 13.6

[[record]]
compound = "CC(C(=O)N1CCCCC1)n1sc2ccccc2c1=O (stereo not drawn)"
measured_property = "inhibition"
readout_number = -14.1

[[record]]
compound = "CCOC(=O)c1ccc(NS(=O)(=O)c2ccc(SC)cc2)cc1"
measured_property = "inhibition"
readout_number = 13.8

[[record]]
compound = "COCCn1cc(C(=O)c2ccccc2OCC(=O)Nc2cc(C)on2)cc(C#N)c1=O"
measured_property = "inhibition"
readout_number = 9.82

[[record]]
compound = "CC(C)(C)NC(=O)CC(CC(=O)O)c1ccccc1 (stereo not drawn)"
measured_property = "inhibition"
readout_number = 12.7

[[record]]
compound = "Cc1ccc(S(=O)(=O)N2CCN(c3nc(C)nc4sc(C)c(C)c34)CC2)cc1"
measured_property = "inhibition"
readout_number = 5.42

[[record]]
compound = "CC1CC(C)CN(CC(=O)Nc2ccc(S(N)(=O)=O)cc2)C1 (stereo not drawn)"
measured_property = "inhibition"
readout_number = 7.84

[[record]]
compound = "CCCN(CCO)Cc1cccc(Br)c1"
measured_property = "inhibition"
readout_number = 14.5

